Consider the following binders and their measured Kd readings.
molecular target: canine FcRn (FcRn large subunit with canine beta-2-microglobulin) (canine); assay: SPR pH 6.0, IgG coupled to CM5, FcRn 50-800 nM
State the answer as a number, implicitly in nM.

Worked examples follow.
* anti-NGF canine IgGB antibody, Fc variant A426Y + T286L (antibody, part only; not given: Anti-NGF variable domains, not shown: another chain or arm of the molecule; small tags and cut ends) Fc: APEMLGGPSVFIFPPKPKDTLLIARTPEVTCVVVDLDPEDPEVQISWFVDGKQMQLAKTQPREEQFNGTYRVVSVLPIGHQDWLKGKQFTCKVNNKALPSPIERTISKARGQAHQPSVYVLPPSREELSKNTVSLTCLIKDFFPPDIDVEWQSNGQQEPESKYRTTPPQLDEDGSYFLYSKLSVDKSRWQRGDTFICYVMHEALHNHYTQESLSHSPGK | 327
* anti-NGF canine IgGB antibody, Fc variant A426H + Y436H (antibody, part only; not given: anti-NGF variable domains and light chain, not shown: another chain or arm of the molecule; small tags and cut ends) Fc: APEMLGGPSVFIFPPKPKDTLLIARTPEVTCVVVDLDPEDPEVQISWFVDGKQMQTAKTQPREEQFNGTYRVVSVLPIGHQDWLKGKQFTCKVNNKALPSPIERTISKARGQAHQPSVYVLPPSREELSKNTVSLTCLIKDFFPPDIDVEWQSNGQQEPESKYRTTPPQLDEDGSYFLYSKLSVDKSRWQRGDTFICHVMHEALHNHHTQESLSHSPGK | 2270
* anti-NGF canine IgGB antibody, Fc variant A426Y + D312P (antibody, part only; not given: anti-NGF variable domains and light chain, not shown: another chain or arm of the molecule; small tags and cut ends) Fc: APEMLGGPSVFIFPPKPKDTLLIARTPEVTCVVVDLDPEDPEVQISWFVDGKQMQTAKTQPREEQFNGTYRVVSVLPIGHQPWLKGKQFTCKVNNKALPSPIERTISKARGQAHQPSVYVLPPSREELSKNTVSLTCLIKDFFPPDIDVEWQSNGQQEPESKYRTTPPQLDEDGSYFLYSKLSVDKSRWQRGDTFICYVMHEALHNHYTQESLSHSPGK | 421
* anti-NGF canine IgGB antibody, Fc variant N434R + T286Y (antibody, part only; not given: anti-NGF variable domains and light chain, not shown: another chain or arm of the molecule) Fc: APEMLGGPSVFIFPPKPKDTLLIARTPEVTCVVVDLDPEDPEVQISWFVDGKQMQYAKTQPREEQFNGTYRVVSVLPIGHQDWLKGKQFTCKVNNKALPSPIERTISKARGQAHQPSVYVLPPSREELSKNTVSLTCLIKDFFPPDIDVEWQSNGQQEPESKYRTTPPQLDEDGSYFLYSKLSVDKSRWQRGDTFICAVMHEALHRHYTQESLSHSPGK | 93.7

Here is another binder to look at.
I am curious: what Kd value has been reported for anti-NGF canine IgGB antibody, Fc variant N434R + D312P (antibody, part only; not given: anti-NGF variable domains and light chain, not shown: another chain or arm of the molecule) Fc: APEMLGGPSVFIFPPKPKDTLLIARTPEVTCVVVDLDPEDPEVQISWFVDGKQMQTAKTQPREEQFNGTYRVVSVLPIGHQPWLKGKQFTCKVNNKALPSPIERTISKARGQAHQPSVYVLPPSREELSKNTVSLTCLIKDFFPPDIDVEWQSNGQQEPESKYRTTPPQLDEDGSYFLYSKLSVDKSRWQRGDTFICAVMHEALHRHYTQESLSHSPGK ?
197

Each recorded value in this set is attributed to patent US20240327497A1.
